Measured values drawn from PubChem BioAssay (NCI) for this set.

test system: 786-0 renal; assay: NCI-60 one-dose screen, 48 h; settings: 10 µM unless noted
The panel holds about 83,000 compounds, 20% with a hit somewhere; the sample as a whole holds those more often. The source made the active and inactive calls. How the source made its calls: active means growth percent below 10; inactive means the rest.
Select the correct class. Options are active, inactive and nothing else.

As a guide, the following entries are already answered.
What did this assay record as the result for NC(=O)C(=O)c1ccccc1NC=O ?
inactive

Continue with O=C(CSC(=S)n1cnnc1)NC(=O)c1ccccc1
inactive

Can you check O=C(Nc1cccc(Cl)c1)Nc1cccc(Cn2c(=O)[nH]c3ccc(Oc4ncccn4)cc3c2=O)c1 next?
inactive

Try the compound CCOC(=O)c1cc2c(n1C)-c1nc(NC(C)=O)sc1CCC2
inactive

Another compound to look at: COC(=O)/C=C1/SC(=Nc2ccc(C(F)(F)F)cc2)N(CCc2c[nH]c3ccc(O)cc23)C1=O
active

Likewise for CCn1cc(C(=O)NNC(=S)Nc2ccc(C)cc2)c(=O)c2ccc(C)nc21 ?
inactive

Please do the same for COc1cc(-c2csc(NC(=O)c3ccc(N4CCOCC4)c(C(F)(F)F)c3)n2)cc(OC)c1OC as well.
inactive

Now this one: COc1ccc(-c2cc(-c3cc(OC)c(OC)c(OC)c3)c(C#N)c(=O)n2CCCCC(=O)NO)cc1
inactive

Continuing:
Query: recorded result category for N#CSCC1CC(O)(c2ccccc2)CC(c2ccc(F)cc2)O1 (stereo not given) in this test
active

Same again, this time with O=c1scc(-c2ccc(C(F)(F)F)cc2)s1
inactive

###

system: U251 CNS; experiment: NCI-60 one-dose screen, 48 h (100 = growth as untreated, 0 = no growth, -100 = all killed); conditions: 10 µM unless noted
Compounds without any hit were thinned out: in the full panel of roughly 83,000, 20% have a hit.
Record Met whenever growth is at 40% or higher; record Not met when lower.

Determine whether measured growth meets or exceeds 40% for COc1ccc(C(=O)N2c3ccccc3Sc3ccccc32)c(OC)c1
Not met

For Cc1cc(S(=O)(=O)/N=C(\N)n2nc(C)c(C)c2C)c(SCc2ccccc2)cc1Cl then?
Met

# iterate: COc1ccc(/C=N/C2=C(C#N)C(c3ccccc3)c3ccc4ccccc4c3O2)cc1 (centres undefined)
Not met

Follow-up entry: O=C(Nn1c2c(sc1=NC1CC1)C(=O)c1ccccc1C2=O)c1cc2ccc1CCc1ccc(cc1)CC2
Not met

Note, next up: Cn1cc(C(=O)c2nc(-c3c[nH]c4ccccc34)no2)c2cc(F)ccc21
Not met

Record: COc1ccccc1N1CCCCC1
Met

Next record, please: O=C1NC(=C(Cl)Cl)/C(=N\S(=O)(=O)NCc2ccccc2)N1
Met

Please answer likewise for O=C(Nc1nc2ccc(C(=O)N3CCN(/C=C/c4ccccc4)CC3)cc2s1)c1ccc(NCCc2ccccc2)c([N+](=O)[O-])c1
Met

Kindly review the next compound as well.
Can Nc1ncnc2c1N=C(c1ccc(Br)cc1)CC(c1cccc(Nc3ccnc4cc(C(F)(F)F)ccc34)c1)N2 (centres undefined) be said to have growth at or above 40%?
Met

###

system: SN12C renal; assay: NCI-60 one-dose screen, 48 h (100 = growth as untreated, 0 = no growth, -100 = all killed); conditions: 10 µM unless noted
This is part of a sample that, as a whole, favours compounds with a hit. Of some 83,000 tested, about 20% had one in any assay.
Answer No if growth is under 80%, and Yes if it is 80% or more.

// inclusive: growth at least 80%? input: O=C(NCc1ccc(Cl)cc1Cl)C1CCC(=O)N1c1cccs1 (stereo not given)
Yes

Same thing, different molecule: N#CC1=C(c2ccccc2)Nc2c(c(-c3ccc(Cl)cc3)nn2-c2ccccc2)C12C(=O)Nc1ccc(Cl)cc12 (stereo not given)
Yes

Thanks! And CN(c1cc2ncc(=O)[nH]c2cc1NC(N)=NCc1ccc(Cl)cc1)C1CCCCC1 ?
No

Consider next the molecule S=c1sc2c(Cl)nc(-c3cccnc3)nc2n1-c1ccccc1 in the same way.
No

Pending molecule:
For this molecule, is measured growth 80% or higher? O=C(/C=C/c1cccc(Cl)c1)c1ccc(Nc2nc(Nc3ccc(F)cc3)nc(Nc3ccc(Cl)cc3)n2)cc1
Yes

###

system: NCI-H322M lung; test: NCI-60 one-dose screen, 48 h (100 = growth as untreated, 0 = no growth, -100 = all killed); conditions: 10 µM unless noted
Compounds without any hit were thinned out: in the full panel of roughly 83,000, 20% have a hit. Activity calls are given as the source filed them. How the source made its calls: active means growth percent below 10; inactive means the rest.
Metric name: growth

Past entries and their recorded results:
Fill in the blank: the reported growth of CSc1oc(C)nc1[P+](c1ccccc1)(c1ccccc1)c1ccccc1 is ____.
99% (inactive)

Subsequent entry: O=c1scc(-c2ccc(C(F)(F)F)cc2)s1
90.5% (inactive)

Continue with Fc1cnccc1C1CC(c2ccc(N3CCNCC3)cc2)=NN1 (stereo not given)
89.3% (inactive)

How about C[C@@H](CO)[C@@H]1CCC=C2CC[C@]3(C)[C@H](CC[C@@H]4[C@@]5(C)CCCNC(C)(C)[C@@H]5CC[C@]43C)[C@H]21 ?
78.3% (inactive)

Same read-out for O=C(Nc1cccc(-c2ccc(Cl)c(C(F)(F)F)c2)c1)C1CCN(Cc2cccc3cccnc23)CC1 ?
35.5% (inactive)

Can you check O=C(COc1ccc(-c2nc3cc(Cl)c(Cl)cc3[nH]2)cc1)N=Nc1c(O)[nH]c2ccc(Cl)cc12 next?
94.9% (inactive)

Give growth for all compounds that follow.
1. Ic1ccc(OCCCCn2ccnc2)cc1
2. CC(C)=CCCC(C)c1ccc(C)c2c1OCN(CCCCCO)C2 (stereo not given)
3. COc1ccc(/C=N/C2=C(C#N)C(c3ccccc3)c3ccc4ccccc4c3O2)cc1 (stereo not given)
4. COc1ccc(/C=C(\C#N)n2nnc3cc(F)c(F)cc32)cc1
5. COc1cc(-c2nccc3[nH]c(-c4ccc5cc[nH]c5c4)nc23)cc(OC)c1OC

1: 85.3% (inactive); 2: 102% (inactive); 3: 43.7% (inactive); 4: 72.6% (inactive); 5: 45% (inactive)

###

System: SF-295 CNS
Experiment: NCI-60 one-dose screen, 48 h (100 = growth as untreated, 0 = no growth, -100 = all killed)
Settings: 10 µM unless noted
Experimental: Cells are grown in 96 well plates and exposed to the test compound for 48 hours. Compounds are tested at a single concentration, which is 10^-5 M for most compounds. The reported endpoint is percent growth (GI% or GIPRCNT), where numbers from 0 - 100% represent growth inhibition, and numbers from -100% - 0 represent cell death. For example, a value of 40 represents 60% growth inhibition. A value of 0 means no net growth occurred over the course of the experiment. […]
The panel holds about 83,000 compounds, 20% with a hit somewhere; the sample as a whole holds those more often. Activity calls are given as the source filed them. Rule for the calls: active = growth percent below 10; inactive = the rest.
Metric name: growth

Some solved cases for reference:
Which growth reading was recorded for the compound COc1ccc(Nc2nnc(-c3ccc(OC)c(OC)c3)o2)cc1 ?
101% (inactive)

Would you kindly repeat that for COc1cc(OC)c(/C=C/C(=O)c2c(OC)cccc2OC)c(OC)c1 ?
1.38% (active)

Same for O=S(=O)(Nc1ccc(Cl)c(C(F)(F)F)c1)c1ccc(-c2cnc(C3CC3)o2)cc1
22.2% (inactive)

Provide growth values for the following items, in order.
1. COc1cc(-c2nc3sccn3c2-c2ccnc(NCCNS(=O)(=O)c3ccccc3)n2)ccc1F
2. Cc1cn(-c2cc(NC(=O)c3cncc(C#Cc4cnc(N)c5ncccc45)c3)cc(C(F)(F)F)c2)cn1

66.4% (inactive)
91% (inactive)

###

test system: OVCAR-5 ovarian; assay: NCI-60 one-dose screen, 48 h; details: 10 µM unless noted
The panel holds about 83,000 compounds, 20% with a hit somewhere; the sample as a whole holds those more often. Calls of active or inactive are those of the source. The calls were made as follows: active = growth percent below 10; inactive = the rest.
Answer with one of the outcomes label 1 (active), label 0 (inactive)

Check out these entries, answers already filled in.
For this compound, state the assay outcome: O=C(Nc1nc2ccccc2s1)c1ccc(F)cc1
label 0

Again, but for C=C1C(=O)O[C@H]2[C@H]1CC/C(COC(=O)/C=C\C(=O)NCc1ccc(Cn3c(=O)sn(CCI)c3=O)cc1)=C\CC[C@@]1(C)O[C@@H]21
label 0

Please do the same for O=S(=O)(NCCNc1nccc(-c2c(-c3ccc(F)c(O)c3)nc3occn23)n1)c1ccc(Cl)cc1 as well.
label 0

Further, for CCn1cc(C(=O)O)c(=O)c2cc(F)c(N3CCN(CC(=O)Nc4ccc(S(=O)(=O)Nc5nccc(C)n5)cc4)C(C)C3)c(F)c21 (centres undefined) ?
label 0

Same question, Fc1cnccc1C1CC(c2ccc(N3CCNCC3)cc2)=NN1 (centres undefined) this time
label 0

Next:
Status in this test for COCCn1cc(-c2csc(-c3cn(C)c4ccc(Br)cc34)n2)c2cccnc21 ?
label 0

Further, for CC(=O)Oc1ccc(N2C(=O)C(Cl)=C(Nc3cccc(C(F)(F)F)c3)C2=O)cc1 ?
label 0

Try the compound COc1cc(OC)c(/C=C/C(=O)c2c(OC)cccc2OC)c(OC)c1
label 1
